Molecular target: T1, human MCAM, full length, expressed on transfected cells (human, UniProt P43121 24-646)
T1 construct: also called CD146; MUC18
T1 chain: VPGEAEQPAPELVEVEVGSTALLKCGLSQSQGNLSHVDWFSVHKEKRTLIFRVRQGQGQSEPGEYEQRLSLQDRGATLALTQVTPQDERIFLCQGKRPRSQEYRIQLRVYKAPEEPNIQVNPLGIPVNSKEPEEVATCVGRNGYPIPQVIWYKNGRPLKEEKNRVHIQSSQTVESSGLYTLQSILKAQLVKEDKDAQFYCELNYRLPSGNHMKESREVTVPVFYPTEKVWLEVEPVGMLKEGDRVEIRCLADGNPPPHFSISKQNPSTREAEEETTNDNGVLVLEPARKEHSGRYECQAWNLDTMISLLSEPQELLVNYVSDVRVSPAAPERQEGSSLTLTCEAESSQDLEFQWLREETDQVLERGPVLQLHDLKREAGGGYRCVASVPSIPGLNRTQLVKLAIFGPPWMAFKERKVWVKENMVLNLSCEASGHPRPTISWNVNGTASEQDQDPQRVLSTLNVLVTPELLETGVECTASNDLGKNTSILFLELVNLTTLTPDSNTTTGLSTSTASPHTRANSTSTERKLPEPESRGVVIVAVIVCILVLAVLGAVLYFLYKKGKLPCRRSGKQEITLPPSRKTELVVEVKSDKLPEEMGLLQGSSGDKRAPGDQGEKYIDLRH
Experiment: flow cytometry, blocking of recombinant human laminin 411 (20 ug/ml) binding to CHO cells expressing human MCAM
reportedEndpoint: IC50 (µg/mL)
Return type: number; implicit unit µg/mL.

Which IC50 value is on record for mouse anti-human MCAM monoclonal antibody clone 1749.1.3 (antibody, V domains shown, Mouse hybridoma monoclonal antibody; also called m1749) VH: DVKLVESGGDLVKPGGSLKLSCAASGFTFSSYIMSWVRQTPEKRLEWVATISSGGSSTYYPDSVKGRFTISRDNAKNTLYLQMSSLKSEDTAMYYCTRDDDYDVKVFAYWGQGTLVTVSA VL: DIVMSQSPSSLAVSAGEKVTMNCKSSRSLLNSRIRKNYLAWYQQKPGQSPKLLIYWASTRESGVPDRFTGSGSGTDFTLTISSVQAEDLAVYYCKQSYNLLTFGAGTKLELK ?
0.545

Requested field: IC50. Item: rat anti-human MCAM monoclonal antibody clone 2107.4.10 (antibody, V domains shown, Rat hybridoma monoclonal antibody) VH: QVQLKESGPGLVQSSQTLSLTCTVSGFSLTSNGVSWVRQPPGKGLEWIAAISSGGSTYYNSAFKSRLSISRNTSKSQVLLKMNSLQTEDTGMYFCARHRPFYFDYWGQGVMVTVSS VL: DIQVTQSPSLLSASVGDRVTLNCKGSQNIYKSLAWFRLKRGEAPKLLIYDANSLQTGIPSRFSGSGSGTDFTLTITSLQPEDVATYFCQQYYSGYTFGAGTKLELK
0.29
